TARGET ENTITY: Yer064c (UniProt P40041)
Sequence: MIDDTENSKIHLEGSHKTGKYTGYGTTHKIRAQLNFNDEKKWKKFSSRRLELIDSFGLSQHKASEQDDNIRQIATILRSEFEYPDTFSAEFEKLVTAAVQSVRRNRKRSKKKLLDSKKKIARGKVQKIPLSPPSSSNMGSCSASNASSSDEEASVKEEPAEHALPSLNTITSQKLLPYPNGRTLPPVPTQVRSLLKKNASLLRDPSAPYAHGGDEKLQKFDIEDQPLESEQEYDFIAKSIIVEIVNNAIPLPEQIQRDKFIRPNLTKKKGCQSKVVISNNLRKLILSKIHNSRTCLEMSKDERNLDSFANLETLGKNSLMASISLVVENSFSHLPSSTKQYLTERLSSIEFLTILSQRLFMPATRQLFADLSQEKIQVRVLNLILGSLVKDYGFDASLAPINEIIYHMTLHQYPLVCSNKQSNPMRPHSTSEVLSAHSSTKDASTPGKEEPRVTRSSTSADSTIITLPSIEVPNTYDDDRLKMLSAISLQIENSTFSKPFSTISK
ASSAY TEXT: PBM E-score (8-mer binding enrichment) (E-score (-0.5 to 0.5)); higher = stronger / more preferred TF binding
RUN PARAMETERS: protein concentration: 200 nM; construct: GST-full length
Over roughly 33,000 sequences, “E-score (-0.5 to 0.5)” has its median near -0.036; the highest 2% begin near 0.37. The full list was thinned out, with the highest values kept by preference.
Tick y if PBM E-score is 0.3 or greater. Tick n if PBM E-score is less than 0.3.

1) CATCCACC    n

Request: Decide: is the reported value of PBM E-score for "ACGACTCA" equal to or greater than 0.3?
Result: y

Request: Decide: is the reported value of PBM E-score for "AATCGTGC" equal to or greater than 0.3?
Result: n

Request: Decide: is the reported value of PBM E-score for "AGTCGTGC" equal to or greater than 0.3?
Result: y

Request: Decide: is the reported value of PBM E-score for "AGACTATA" equal to or greater than 0.3?
Result: y

Request: Decide: is the reported value of PBM E-score for "AAACTAAT" equal to or greater than 0.3?
Result: n

Request: Decide: is the reported value of PBM E-score for "ACGACTCC" equal to or greater than 0.3?
Result: y

Request: Decide: is the reported value of PBM E-score for "AACTGAAC" equal to or greater than 0.3?
Result: n

Request: Decide: is the reported value of PBM E-score for "ACGACTGC" equal to or greater than 0.3?
Result: n

Request: Decide: is the reported value of PBM E-score for "ATACTAAT" equal to or greater than 0.3?
Result: n
